Values were extracted from patent US9561228B2.

tested on: A375 cells (malignant melanoma); assay: Inhibition of cancer cell proliferation, A375 (CellTiterGlo, 72 hours); type: cell-based; details: Homo sapiens, A-375
EXPERIMENTAL READOUT: GI50

Solved cases below.
>>> test_value("C=CC(=O)Nc1cc(C)ccc1Nc1nc(Nc2cc(C(=O)NC)c(F)cc2C)ncc1Cl")
"0.101 to 0.5 µM"
>>> test_value("C=CC(=O)Nc1cc(F)ccc1Nc1nc(Nc2cc(OC)ncc2C)ncc1C(F)(F)F")
"< 0.1 µM"
>>> test_value("C=CC(=O)Nc1ccccc1Nc1nc(N[C@H]2CCCN(C(=O)CC)C2)ncc1Cl")
"< 0.1 µM"

### Prompt Please report the recorded GI50 for `C=CC(=O)Nc1cc(CCC(N)=O)ccc1Nc1nc(Nc2cc(OC)ncc2C)ncc1C(F)(F)F` .
### Response 0.101 to 0.5 µM

### Prompt Suppose we examine the molecule `C=CC(=O)Nc1cc(C)ccc1Nc1nc(N[C@H]2CCCN(C(=O)CN)C2)ncc1C(F)(F)F` ; what GI50 value has been reported?
### Response > 1 µM

### Prompt Which GI50 value belongs to `C=CC(=O)Nc1cc(C)ccc1Nc1nc(Nc2cc(C(N)=O)ccc2C)ncc1Cl` ?
### Response < 0.1 µM

### Prompt Field request: GI50 | item: `C=CC(=O)Nc1ccccc1Nc1nc(NC2CCOCC2)ncc1Cl`
### Response 0.101 to 0.5 µM

### Prompt What measured GI50 goes with `C=CC(=O)Nc1cc(C)ccc1Nc1nc(Nc2ccnc(OC)c2)ncc1Cl` ?
### Response < 0.1 µM

### Prompt If you can, please state the reported GI50 value of `C=C(C)S(=O)(=O)Nc1ccccc1Nc1nc(N[C@H]2CCCN(C(=O)CO)C2)ncc1C(F)(F)F` .
### Response 0.501 to 0.999 µM

### Prompt Which GI50 is reported for this molecule? `C=CC(=O)Nc1ccccc1Nc1nc(N[C@H]2CCN(S(C)(=O)=O)C2)ncc1C(F)(F)F`
### Response 0.101 to 0.5 µM
